molecular target: Progesterone receptor (Homo sapiens); experiment: Antagonistic activity by cotransfection assay against human Progesterone receptor in CV-1 cells; type: functional, cell-based

Compound | Tested System | Efficacy, %
CC1(C)C=Cc2c(ccc3c2C(c2ccc(Cl)cc2)Oc2ccccc2-3)N1 (stereo unspecified) | Progesterone receptor (Homo sapiens) | 50
C=C1CC(C)(C)Nc2ccc3c(c21)C(c1ccc(Cl)cc1)Oc1ccccc1-3 (stereo unspecified) | Progesterone receptor (Homo sapiens) | 81
C[C@@H]1CC(C)(C)Nc2ccc3c(c21)[C@H](c1ccc(Cl)cc1)Oc1ccccc1-3 | Progesterone receptor (Homo sapiens) | 56
C[C@@H]1c2c(ccc3c2[C@H](c2ccc(Cl)cc2)Oc2ccccc2-3)NC(C)(C)[C@H]1O | Progesterone receptor (Homo sapiens) | 69
CC1(C)CC(=O)c2c(ccc3c2C(c2ccc(Cl)cc2)Oc2ccccc2-3)N1 (stereo unspecified) | Progesterone receptor (Homo sapiens) | 84
C[C@H]1c2c(ccc3c2[C@H](c2ccc(Cl)cc2)Oc2ccccc2-3)NC(C)(C)[C@@H]1O | Progesterone receptor (Homo sapiens) | 91

* * *

Molecular target: Progesterone receptor (Homo sapiens)
Sequence (whole entry): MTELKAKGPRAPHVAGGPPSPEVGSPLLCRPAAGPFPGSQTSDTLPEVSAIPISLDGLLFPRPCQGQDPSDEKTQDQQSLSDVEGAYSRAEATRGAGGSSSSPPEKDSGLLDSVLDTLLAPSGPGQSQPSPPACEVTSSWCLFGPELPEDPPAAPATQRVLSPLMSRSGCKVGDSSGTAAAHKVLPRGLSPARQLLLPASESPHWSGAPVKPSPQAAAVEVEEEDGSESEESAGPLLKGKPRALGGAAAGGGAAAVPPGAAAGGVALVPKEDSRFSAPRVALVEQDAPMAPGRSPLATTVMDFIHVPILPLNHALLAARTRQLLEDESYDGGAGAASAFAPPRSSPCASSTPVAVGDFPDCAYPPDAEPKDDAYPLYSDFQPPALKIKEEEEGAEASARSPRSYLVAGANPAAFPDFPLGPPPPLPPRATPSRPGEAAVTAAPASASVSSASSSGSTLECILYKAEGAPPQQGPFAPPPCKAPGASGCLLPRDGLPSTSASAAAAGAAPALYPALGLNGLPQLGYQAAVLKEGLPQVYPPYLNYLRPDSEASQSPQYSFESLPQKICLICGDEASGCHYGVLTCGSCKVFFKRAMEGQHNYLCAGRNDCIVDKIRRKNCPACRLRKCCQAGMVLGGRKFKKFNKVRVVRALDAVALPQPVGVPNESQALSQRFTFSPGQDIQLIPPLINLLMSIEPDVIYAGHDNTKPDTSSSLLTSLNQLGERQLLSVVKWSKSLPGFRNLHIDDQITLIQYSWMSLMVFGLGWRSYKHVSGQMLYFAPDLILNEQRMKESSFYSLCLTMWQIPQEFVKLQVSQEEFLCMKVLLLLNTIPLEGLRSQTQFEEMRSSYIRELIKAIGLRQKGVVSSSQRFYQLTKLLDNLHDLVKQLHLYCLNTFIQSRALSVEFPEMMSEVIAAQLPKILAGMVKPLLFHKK
Experiment: Compound was tested for agonistic activity by cotransfection assay against human Progesterone receptor in CV-1 cells
Type: functional, cell-based
Reported Efficacy values are given for each entry in this list.
Readout: Efficacy (%)

Compound | Readout | Unit Symbol | Readout Value
C[C@@H]1C(=O)C(C)(C)Nc2ccc3c(c21)[C@H](c1cccc(C(F)(F)F)c1)Oc1ccccc1-3 | Efficacy | % | 93
CC1C(=O)C(C)(C)Nc2ccc3c(c21)/C(=C/c1cccc(F)c1)Oc1ccccc1-3 (stereo unspecified) | Efficacy | % | 155
CC1C(=O)C(C)(C)Nc2ccc3c(c21)/C(=C/c1ccccc1)Oc1ccccc1-3 (stereo unspecified) | Efficacy | % | 133
C[C@H]1C(=O)C(C)(C)Nc2ccc3c(c21)[C@H](c1cccc(F)c1)Oc1ccccc1-3 | Efficacy | % | 114
CC1(C)Nc2ccc3c(c2C(C)(C)C1=O)C(c1ccc(Cl)cc1)Oc1ccccc1-3 (stereo unspecified) | Efficacy | % | 36
C[C@H]1C(=O)C(C)(C)Nc2ccc3c(c21)[C@H](c1cccc(C(F)(F)F)c1)Oc1ccccc1-3 | Efficacy | % | 66
C[C@H]1C(=O)C(C)(C)Nc2ccc3c(c21)[C@H](c1ccccc1)Oc1ccccc1-3 | Efficacy | % | 103
C[C@H]1C(=O)C(C)(C)Nc2ccc3c(c21)[C@H](c1ccc(Cl)cc1)Oc1ccccc1-3 | Efficacy | % | 102
C[C@H]1CC(C)(C)Nc2ccc3c(c21)[C@H](c1ccc(Cl)cc1)Oc1ccccc1-3 | Efficacy | % | 39
CC1CC(C)(C)Nc2ccc3c(c21)/C(=C/c1cccc(F)c1)Oc1ccccc1-3 (stereo unspecified) | Efficacy | % | 114
CC1(C)C=Cc2c(ccc3c2C(c2ccc(Cl)cc2)Oc2ccccc2-3)N1 (stereo unspecified) | Efficacy | % | 28
C[C@@H]1C(=O)C(C)(C)Nc2ccc3c(c21)[C@H](c1ccc(Cl)cc1)Oc1ccccc1-3 | Efficacy | % | 122
C[C@@H]1C(=O)C(C)(C)Nc2ccc3c(c21)[C@H](c1cccc(F)c1)Oc1ccccc1-3 | Efficacy | % | 106
C[C@@H]1CC(C)(C)Nc2ccc3c(c21)[C@H](c1ccc(Cl)cc1)Oc1ccccc1-3 | Efficacy | % | 58
C[C@@H]1C(=O)C(C)(C)Nc2ccc3c(c21)[C@H](c1ccccc1)Oc1ccccc1-3 | Efficacy | % | 92
C=C1CC(C)(C)Nc2ccc3c(c21)C(c1ccc(Cl)cc1)Oc1ccccc1-3 (stereo unspecified) | Efficacy | % | 30
